Assay: in vivo
Conditions: male, Wistar, rat, in vivo, inhaled or intranasal, T½, planned 0.05 mg/kg (actual 0.03 mg/kg), mean ± SD, N=4
value-type: half-life (h)

1. CN(C)CCC=C1c2ccccc2C=Cc2ccccc21 1.9

###

Test: in vivo
Settings: male, beagle, dog, plasma, inhaled or intranasal, 0.26 mg/kg

compound	Cmax, ng/mL
CN(C)CCC=C1c2ccccc2C=Cc2ccccc21 [cyclobenzaprine]	62.3

###

Assay: in vivo
Conditions: male, Wistar, rat, inhaled or intranasal, 0.4 mg/kg
value-type: AUC(0-t)

1. CN(C)CCC=C1c2ccccc2C=Cc2ccccc21 51.2 ng·h/mL

###

Assay: in vivo
Conditions: male, beagle, dog, plasma, inhaled or intranasal, 0.26 mg/kg
value-type: half-life

1) CN(C)CCC=C1c2ccccc2C=Cc2ccccc21 6.09 h
